- ASSAYED_SYSTEM: his-labeled human IL-13 (immunogen A) (human) (UniProt P35225)
- PROCEDURE_TEXT: FACS blocking, biotin-IL-13 on IL-13Ra2 HEK293 cells; antibody at 0.27 nM
ASSAY_READOUT: mean fluorescence intensity
Answer field: number only, no words.

Give the reported mean fluorescence intensity for this binder. c28A2E11 (mouse-human chimeric IL-13 antibody) (antibody, V domains shown) VH: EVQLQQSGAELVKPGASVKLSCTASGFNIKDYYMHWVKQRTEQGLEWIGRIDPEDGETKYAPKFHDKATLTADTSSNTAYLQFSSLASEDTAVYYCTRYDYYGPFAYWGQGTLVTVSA VL: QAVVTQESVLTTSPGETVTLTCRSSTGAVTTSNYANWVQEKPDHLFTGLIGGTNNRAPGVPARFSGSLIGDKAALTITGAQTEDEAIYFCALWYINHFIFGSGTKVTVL
92.9

Give the reported mean fluorescence intensity for this binder. 70F10A10 (lead antibody, mouse hybridoma) (antibody, V domains shown) VH: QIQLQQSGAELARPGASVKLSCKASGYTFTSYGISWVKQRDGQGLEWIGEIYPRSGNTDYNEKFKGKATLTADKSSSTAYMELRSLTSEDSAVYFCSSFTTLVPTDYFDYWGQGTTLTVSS VL: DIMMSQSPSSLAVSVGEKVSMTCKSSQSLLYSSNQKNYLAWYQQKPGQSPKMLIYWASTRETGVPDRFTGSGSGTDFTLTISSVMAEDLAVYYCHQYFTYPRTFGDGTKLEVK
46.8

Give the reported mean fluorescence intensity for this binder. 28A2E11 (lead antibody, mouse hybridoma) (antibody, V domains shown, Mouse monoclonal antibody purified from hybridoma supernatant on Protein G) VH: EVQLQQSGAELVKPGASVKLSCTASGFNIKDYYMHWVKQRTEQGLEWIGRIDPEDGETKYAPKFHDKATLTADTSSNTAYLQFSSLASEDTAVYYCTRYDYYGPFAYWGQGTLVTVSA VL: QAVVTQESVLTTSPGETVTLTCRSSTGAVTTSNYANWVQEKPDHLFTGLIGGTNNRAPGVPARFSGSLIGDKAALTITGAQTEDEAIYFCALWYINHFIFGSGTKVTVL
72.1

The reported measurements were obtained from patent US20190309059A1.
